- tgt: EP2 receptor (Homo sapiens)
- Construct: These full length receptors are used to prepare 293S cells expressing the EP1, EP2, EP3 and EP4 receptors; expressed in transfected cells; membranes
- Sequence (P43116 whole entry): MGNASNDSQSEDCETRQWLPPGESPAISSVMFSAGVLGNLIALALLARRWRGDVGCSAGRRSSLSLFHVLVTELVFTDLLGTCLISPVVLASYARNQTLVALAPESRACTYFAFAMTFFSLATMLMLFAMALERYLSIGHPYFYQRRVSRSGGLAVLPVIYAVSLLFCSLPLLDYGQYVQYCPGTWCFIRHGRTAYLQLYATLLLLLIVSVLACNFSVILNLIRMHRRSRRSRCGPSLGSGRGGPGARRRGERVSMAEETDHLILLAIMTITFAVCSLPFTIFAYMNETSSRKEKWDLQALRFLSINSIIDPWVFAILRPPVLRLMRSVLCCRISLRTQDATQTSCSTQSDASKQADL
- procedureText: Assay for binding to prostaglandin E2 receptors, 3H-PGE2 displacement (EP2)
- conditionNotes: displacement of 3H-prostaglandin E2, membranes of transfected 293S cells; read-out: IC50 at EP2 receptor subtype
metricName: IC50

Ask | Fill in: IC50 of O=C(O)CCCCCCN1C(=O)CCC1CCC(O)Cc1ccccc1 (stereo not shown) is ___
Reply | > 3.2 µM

====

Target chain: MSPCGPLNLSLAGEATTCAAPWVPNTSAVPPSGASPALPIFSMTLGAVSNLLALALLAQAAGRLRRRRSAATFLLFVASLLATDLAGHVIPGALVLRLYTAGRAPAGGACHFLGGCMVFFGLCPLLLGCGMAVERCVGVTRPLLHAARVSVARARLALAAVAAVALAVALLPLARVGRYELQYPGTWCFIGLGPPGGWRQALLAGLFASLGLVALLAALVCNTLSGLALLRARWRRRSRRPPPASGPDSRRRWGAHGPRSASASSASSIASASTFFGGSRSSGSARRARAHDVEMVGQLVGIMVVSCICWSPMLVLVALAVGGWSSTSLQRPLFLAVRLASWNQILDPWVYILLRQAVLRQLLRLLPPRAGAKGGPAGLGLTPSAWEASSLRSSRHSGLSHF
metricName: IC50

Ask | Fill in: IC50 of O=C(O)CCCCCCN1C(=O)CCC1CCC(O)Cc1ccccc1 (stereo not shown) is ___
Reply | > 3.2 µM

====

- tgt: EP4 receptor (Homo sapiens, UniProt P35408)
- Sequence (P35408 whole entry): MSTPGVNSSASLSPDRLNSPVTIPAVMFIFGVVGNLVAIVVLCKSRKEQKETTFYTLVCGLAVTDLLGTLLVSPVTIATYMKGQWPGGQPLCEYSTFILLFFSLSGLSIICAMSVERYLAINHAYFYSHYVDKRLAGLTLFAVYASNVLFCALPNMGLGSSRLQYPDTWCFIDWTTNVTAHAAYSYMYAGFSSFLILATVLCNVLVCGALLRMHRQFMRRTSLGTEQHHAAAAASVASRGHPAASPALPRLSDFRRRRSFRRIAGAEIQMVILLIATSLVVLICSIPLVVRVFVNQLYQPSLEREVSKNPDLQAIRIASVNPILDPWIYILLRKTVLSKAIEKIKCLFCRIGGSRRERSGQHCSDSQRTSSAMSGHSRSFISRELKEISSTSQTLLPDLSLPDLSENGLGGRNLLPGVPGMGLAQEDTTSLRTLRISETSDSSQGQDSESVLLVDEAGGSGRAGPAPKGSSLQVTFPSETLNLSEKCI
metricName: pIC50
Field pIC50 (float): negative decimal logarithm of the concentration in molar.

Ask | Fill in: pIC50 of O=C(O)CCCCCCN1C(=O)CCC1CCC(O)Cc1ccccc1 (stereo not shown) is ___
Reply | 7.80
